These measurements were taken from PubChem BioAssay (NCI).

Tested on: UACC-257 melanoma
protocolSummary: NCI tumour cell line growth inhibition, 48 h
measure: GI50

INSERT INTO results (smilesstring, measure, result) VALUES
  ('Cn1c(=O)c(Oc2ccc(F)cc2F)cc2cnc(NC(CO)CO)nc21', 'GI50', '> 25 µM');

# input for lookup
Form field GI50, entry COc1ccc(C(=O)/C=C/c2c(C(F)(F)F)nc3sccn23)cc1OC : 7.77 µM

====

System: OVCAR-3 ovarian
protocolSummary: NCI tumour cell line growth inhibition, 48 h
measure: TGI

INSERT INTO results (compound, result) VALUES
  ('N#C/C(=C1\NN=C(N)C(c2ccc(Cl)cc2)=C1O)c1ccc(Cl)cc1', '> 100 µM'),
  ('Cc1nc(-n2[nH]c(C)c(CCO)c2=O)[nH]c(=O)c1CCO', '> 100 µM');

Form field TGI, entry Nc1ccc2nc3ccc(N)cc3[n+](-c3ccccc3)c2c1 : > 100 µM

Form field TGI, entry COc1ccc(C2C(=O)C(Cl)N2Nc2nc(C)cc(=O)[nH]2)cc1OC (stereo not given) : 84.8 µM

Form field TGI, entry Cc1ccc(S(=O)(=O)NNC(=O)c2sc(-c3nc(C)c(C(=O)NNS(=O)(=O)c4ccc(C)cc4)s3)nc2C)cc1 : > 100 µM

Form field TGI, entry COCC1N=C(c2cc(OC)c(OC)c(OC)c2-c2cc3c(cc2C2OCCCO2)OCO3)O[C@H]1c1ccccc1 (stereo not given in full) : > 100 µM

Form field TGI, entry CN(C)CCNC(=O)c1ccc(C(=O)NCCN(C)C)c2nc3ccccc3cc12 : 9.91 µM

Form field TGI, entry CCOC(=O)c1sc2nc(SC)nc3c2c1NCN3c1ccc2c(c1)OCCCO2 : 93.9 µM

Form field TGI, entry C(=C\c1nccs1)/c1cccc(/C=C/c2nccs2)n1 : > 50 µM

Form field TGI, entry FC(F)(F)C(C1=NC(C(F)(F)F)(C(F)(F)F)N=C(N2CCOCC2)O1)C(F)(F)F : > 100 µM

====

System: ACHN renal
protocolSummary: NCI tumour cell line growth inhibition, 48 h; in the data active = GI50 below about 0.43 µM; inactive = the rest
Mark one answer only. Choices: active, inactive

Take a look at these entries with their results.
INSERT INTO results (compound, subjectoftest, cat) VALUES
  ('C/C(=C\c1ccn(-c2ccc(N)c(F)c2)n1)[C@@H]1C[C@@H]2O[C@]2(C)CCC[C@H](C)[C@H](O)[C@@H](C)C(=O)C(C)(C)[C@@H](O)CC(=O)O1', 'ACHN renal', 'active'),
  ('COC(=O)c1cc(-c2cc(OC)c(OC)c(OC)c2)[nH]c1N/N=C/c1c(Cl)cccc1Cl', 'ACHN renal', 'inactive'),
  ('CC1=CCC(OC(=O)C(C)(C)CCC(O)(C(=O)OC2(C(C)C)CCC3(C)OC3C2)C(C)C)(C(C)C)CC1 (stereo not drawn)', 'ACHN renal', 'active'),
  ('CN(C)c1ccc(-c2cc(-c3ccc(Nc4nc(Nc5ccccc5)nc(Nc5ccc(Cl)cc5)n4)cc3)nc(N)n2)cc1', 'ACHN renal', 'inactive');

# lookup: test call for O=C1CC(c2ccc3c(c2)OCO3)Nc2cc3c(cc21)OCO3 (stereo not drawn)
inactive

# lookup: test call for O=C(/C=C/c1cccs1)c1ccc(Nc2nc(Nc3ccc(F)cc3)nc(Nc3ccc(F)cc3)n2)cc1
inactive

# lookup: test call for COc1ccc2c(c1)c(-c1nc(-c3c[nH]c4ncccc34)cs1)cn2CCCCN1CCOCC1
inactive

# lookup: test call for Cc1ccc(/C=C2/SC(Nc3nc(-c4nc(NC5=NC(=O)/C(=C\c6ccc(C)cc6)S5)sc4C)c(C)s3)=NC2=O)cc1
inactive

====

Test system: COLO 205 colon
protocolSummary: NCI tumour cell line growth inhibition, 48 h; in the data active = GI50 below about 0.43 µM; inactive = the rest
Mark one answer only. Choices: 1 (active), 0 (inactive)

INSERT INTO results (compound, cat) VALUES
  ('CN(c1ccc(NC(=O)Nc2ccc(OC(F)(F)F)cc2)cc1)c1ccnc(Nc2cccc(S(N)(=O)=O)c2)n1', 1),
  ('CCN(CCNc1ccc(C)c2sc3cc(Cl)ccc3c(=O)c12)CC(C)O (configuration not stated)', 0),
  ('C/C(=C\c1ccn(-c2ccc(N)c(F)c2)n1)[C@@H]1C[C@@H]2O[C@]2(C)CCC[C@H](C)[C@H](O)[C@@H](C)C(=O)C(C)(C)[C@@H](O)CC(=O)O1', 1),
  ('CC(C)[C@@]12C[C@@H](OC(=O)COC(=O)/C=C/c3ccccc3)[C@@](C)(O1)[C@@H]1CC[C@@H](C)[C@H]1[C@@H]2OC(=O)/C=C/c1ccccc1', 0),
  ('N#Cc1c(N)nc(N2CCOCC2)c(C#N)c1-c1ccc(Cl)cc1', 0),
  ('C=CC1=C[C@@H]2[C@@H]3O[C@]4(CC[C@H](O4)[C@@H](C)C[C@@H](O)C3=O)C[C@H](O)C3=NCC[C@@]32CC1', 1);

Now for a further compound.
# lookup: test call for Cc1ccc(/C=C2/SC(Nc3nc(-c4nc(NC5=NC(=O)/C(=C\c6ccc(C)cc6)S5)sc4C)c(C)s3)=NC2=O)cc1
0

====

In this section, each of the compounds is paired with its reported TGI.
Test system: DMS 114 small cell lung
protocolSummary: NCI tumour cell line growth inhibition, 48 h
Give just the number in µM; leave the unit off.

Please review the following examples before continuing.
INSERT INTO assay_data (compound, quantitativereadout) VALUES
  ('CS/C(=N\C(=S)Nc1ccccc1)Nc1ccccc1', 52.6),
  ('CCCCCCCCCCC(O)[C@H]1CCC(C2CC[C@H]([C@H](O)CCCCCCCCCCC(O)CC3=CC(C)OC3=O)O2)O1 (stereo not given in full)', 3.01);

Form field TGI, entry O=c1c(Sc2c(O)c3ccccc3c3ccccc3c2=O)c(O)c2ccccc2c2ccccc12 : 92.3

====

System: MDA-MB-435
protocolSummary: NCI tumour cell line growth inhibition, 48 h
measure: TGI

Form field TGI, entry COc1ccc2oc(=O)cc(C)c2c1 : > 100 µM

Form field TGI, entry Cc1ccccc1NC(=O)C(=O)CC(=O)c1sc(Nc2ccccc2[N+](=O)[O-])nc1C : > 100 µM

Form field TGI, entry O=c1[nH]c(=O)n(COCCO)c2ccc(Br)cc12 : > 100 µM

Form field TGI, entry N#CCCSC1SC(=C2SC3=C(SCCS3)S2)SC1SCCC#N (centres undefined) : > 100 µM

====

In this section, each of the compounds is paired with its reported TGI.
System: NCI-H460 lung
protocolSummary: NCI tumour cell line growth inhibition, 48 h
Give just the number in µM; leave the unit off.

Form field TGI, entry O=C1/C(=C/c2ccc([N+](=O)[O-])o2)Oc2ccc(Br)cc21 : 24.2

Form field TGI, entry O=C1C=C[C@@]23C[C@@H](Nc4c(O)c5c6c(c42)=NCCC=6C=N5)SC3=C1 : 19.8

Form field TGI, entry O=c1[nH]nc2ccccc2c1Cl : 46.2

Form field TGI, entry Cc1nc(Nc2ccc(F)cc2)c2sc(=S)n(-c3ccc(F)cc3)c2n1 : 28.8

Form field TGI, entry N=c1c2c(-c3ccccc3)c(-c3ccccc3)n(Cc3ccccc3)c2ncn1CCCO : 4.47

====

Tested on: OVCAR-5 ovarian
protocolSummary: NCI tumour cell line growth inhibition, 48 h
measure: GI50

INSERT INTO measurements (molecule, measure, result) VALUES
  ('CC(C)C[C@H](NC(=O)[C@H]1O[C@@H]1C(=O)O)C(=O)NCCc1ccc(O)cc1', 'GI50', '> 100 µM'),
  ('COc1ccc(-c2nnc(SCC(=O)Nc3ccc(/C(C)=N\O)cc3)n2-c2ccccc2)cc1OC', 'GI50', '> 100 µM');

# input for lookup
Form field GI50, entry O=C1CC(c2ccc3c(c2)OCO3)Nc2cc3c(cc21)OCO3 (stereo not drawn) : 2.3 µM

====

System: SK-MEL-2 melanoma
protocolSummary: NCI tumour cell line growth inhibition, 48 h
measure: GI50

Please review the following examples before continuing.
INSERT INTO results (smilesstring, subjectoftest, result) VALUES
  ('N#Cc1c(N)nc(N2CCOCC2)c(C#N)c1-c1ccc(Cl)cc1', 'SK-MEL-2 melanoma', '18100 nM'),
  ('C=C(C)[C@@H]1CC[C@]2(C(=O)NCCNCCNCCN)CC[C@]3(C)[C@H](CC[C@@H]4[C@@]5(C)CC[C@H](O)C(C)(C)[C@@H]5CC[C@]43C)[C@@H]12', 'SK-MEL-2 melanoma', '16800 nM');

Given the molecule N#Cc1cccc(C(=O)Nc2cccc(NC(=O)c3cccc(C#N)c3)c2)c1 and test system SK-MEL-2 melanoma, the measured GI50 is > 100000 nM

Given the molecule O=C1/C(=C/c2ccc([N+](=O)[O-])o2)Oc2ccc(Br)cc21 and test system SK-MEL-2 melanoma, the measured GI50 is 2240 nM

Given the molecule O=C1c2ccc3c4c5ccc(c24)C(=O)N1CCCOCCCCOCCCNCc1ccc(cc1)CNCCCOCCCCOCCCN(C3=O)C5=O and test system SK-MEL-2 melanoma, the measured GI50 is 861 nM

Given the molecule Cc1nc2sc(C(=O)Nc3cccc4ccccc34)c(N)c2cc1C(=O)/C=C/c1ccccc1 and test system SK-MEL-2 melanoma, the measured GI50 is 501 nM

Given the molecule CCCCCCCCCCCCCCCC[N+](C)(C)CCN(Cc1ccc(OC)cc1)c1ncccn1 and test system SK-MEL-2 melanoma, the measured GI50 is 2880 nM
